# System: Leishmania promastigotes
# Assay: Leishmania promastigotes Assay
# Format: cell-based
# Study Conditions: promastigotes, 3H-thymidine uptake; read-out: Leishmania IC50 ± SD
pIC50: −log10 of the molar value.
Measured pIC50 accompanies every entry in the list below.
Endpoint Label: pIC50

[[record]]
compound = "C=CCOc1ccc(C(=O)/C=C/c2cc(OC)c(OC)c(OC)c2)cc1 [3,4,5-OCH3-4′-allyloxy]"
result = 4.39

[[record]]
compound = "O=C(/C=C/c1ccc(O)cc1)c1ccc(O)cc1 [4′-4-OH]"
result = 4.08

[[record]]
compound = "C=CCOc1ccc(C(=O)/C=C/c2c(OC)cccc2OC)cc1 [2,6-OCH3-4′-allyloxy]"
result = 4.09

[[record]]
compound = "COc1cc(O)ccc1/C=C/C(=O)c1ccc(N(C)C)cc1 [2-OCH3-4-OH-4′-N(CH3)2]"
result = 4.31

[[record]]
compound = "O=C(/C=C/c1ccc(O)c(O)c1)c1ccc(O)cc1O [2′,4′,3,4-OH]"
result = 4.18

[[record]]
compound = "C=CCOc1ccc(C(=O)/C=C/c2cc(OC)ccc2OC)cc1 [2,5-OCH3-4′-allyloxy]"
result = 4.14

[[record]]
compound = "COc1ccc(C(=O)/C=C/c2ccc(F)c(F)c2)c(OC)c1 [2′,4′-OCH3-3,4-F]"
result = 4.80

[[record]]
compound = "COc1cc(/C=C/C(=O)c2ccc(O)cc2)cc(OC)c1 [3,5-OCH3-4′-OH]"
result = 4.92

[[record]]
compound = "CN(C)c1ccc(/C=C/C(=O)c2ccc(O)cc2)cc1 [4-N(CH3)2-4′-OH]"
result = 4.10


* * *

Measured Minimum Cytotoxic Concentration accompanies every entry in the list below.
# Tested on: Vero cell cultures
# Assay: Cytotoxicity in Vero cell cultures
# Type: cell-based
# Study Conditions: Vero cells; values given as fractions, footnote a not given
Endpoint Label: Minimum Cytotoxic Concentration

[[record]]
given_smiles = "C=CCOc1ccc(C(=O)/C=C/c2cc(OC)ccc2OC)cc1"
result = "<1/100"

[[record]]
given_smiles = "C=CC(C)(C)c1cc(/C=C/C(=O)c2ccc(O)cc2)c(OC)cc1O"
result = "<1/100"

[[record]]
given_smiles = "C=CCOc1ccc(C(=O)/C=C/c2cccc(OC)c2OC)cc1"
result = "<1/100"


* * *

# Test system: Sindbis virus
# Assay: Antiviral activity in Vero cell cultures
# Type: cell-based
# Study Conditions: Vero cells; values given as fractions
Endpoint Label: Minimum inhibitory concentration, Sindbis virus

[[record]]
compound = "C=CCOc1ccc(C(=O)/C=C/c2cc(OC)c(OC)c(OC)c2)cc1"
result = "1/2000"

[[record]]
compound = "C=CCOc1ccc(C(=O)/C=C/c2cc(OC)c(OC)cc2OC)cc1"
result = "1/2000"

[[record]]
compound = "C=CC(C)(C)c1cc(/C=C/C(=O)c2ccc(O)cc2)c(OC)cc1O"
result = "1/600"

[[record]]
compound = "C=CCOc1ccc(C(=O)/C=C/c2c(OC)cc(OC)cc2OC)cc1"
result = "1/2000"

[[record]]
compound = "C=CCOc1ccc(C(=O)/C=C/c2ccc(OC)c(OC)c2)cc1"
result = "1/60000"

[[record]]
compound = "COc1ccc(/C=C/C(=O)c2ccc(O)cc2)cc1OC"
result = "<1/100"

[[record]]
compound = "C=CCOc1ccc(C(=O)/C=C/c2cccc(OC)c2OC)cc1"
result = "<1/100"

[[record]]
compound = "C=CCOc1ccc(C(=O)/C=C/c2cc(OC)ccc2OC)cc1"
result = "<1/100"

[[record]]
compound = "C=CCOc1ccc(C(=O)/C=C/c2cc(OC)cc(OC)c2)cc1 [SBC-35ma, 3,5-dimethoxy-4′-allyloxychalcone]"
result = "<1/100"


* * *

# Test system: Coxsackie virus B4
# Assay: Antiviral activity in Vero cell cultures
# Type: cell-based
# Study Conditions: Vero cells; values given as fractions
Measured Minimum inhibitory concentration, Coxsackie virus B4 accompanies every entry in the list below.
Endpoint Label: Minimum inhibitory concentration, Coxsackie virus B4

[[record]]
compound = "C=CCOc1ccc(C(=O)/C=C/c2cc(OC)ccc2OC)cc1 [2,5m4′ac]"
measured_on = "Coxsackie virus B4"
result = "<1/100"

[[record]]
compound = "COc1ccc(/C=C/C(=O)c2ccc(O)cc2)cc1OC [3,4m4′hc]"
measured_on = "Coxsackie virus B4"
result = "<1/100"

[[record]]
compound = "C=CCOc1ccc(C(=O)/C=C/c2ccc(OC)c(OC)c2)cc1 [34m4′ac, 3,4-dimethoxy-4′-allyloxychalcone]"
measured_on = "Coxsackie virus B4"
result = "1/60000"

[[record]]
compound = "C=CCOc1ccc(C(=O)/C=C/c2cccc(OC)c2OC)cc1 [2,3m4′ac]"
measured_on = "Coxsackie virus B4"
result = "<1/100"

[[record]]
compound = "C=CCOc1ccc(C(=O)/C=C/c2cc(OC)c(OC)cc2OC)cc1 [2,4,5m4′ac]"
measured_on = "Coxsackie virus B4"
result = "1/600"

[[record]]
compound = "C=CCOc1ccc(C(=O)/C=C/c2c(OC)cc(OC)cc2OC)cc1 [2,4,6m4′ac]"
measured_on = "Coxsackie virus B4"
result = "1/600"

[[record]]
compound = "COc1cccc(OC)c1/C=C/C(=O)c1ccc(O)cc1 [2,6m4′hc]"
measured_on = "Coxsackie virus B4"
result = "1/600"

[[record]]
compound = "COc1ccc(/C=C/C(=O)c2ccccc2O)c(OC)c1 [2,4m2′hc]"
measured_on = "Coxsackie virus B4"
result = "<1/100"

[[record]]
compound = "C=CCOc1ccc(C(=O)/C=C/c2cc(OC)cc(OC)c2)cc1 [SBC-35ma, 3,5-dimethoxy-4′-allyloxychalcone]"
measured_on = "Coxsackie virus B4"
result = "<1/100"

[[record]]
compound = "C=CCOc1ccc(C(=O)/C=C/c2cc(OC)c(OC)c(OC)c2)cc1 [3,4,5m4′ac]"
measured_on = "Coxsackie virus B4"
result = "1/2000"

[[record]]
compound = "COc1ccc(/C=C/C(=O)c2ccccc2)c(OC)c1 [2,4mc]"
measured_on = "Coxsackie virus B4"
result = "<1/100"

[[record]]
compound = "C=CC(C)(C)c1cc(/C=C/C(=O)c2ccc(O)cc2)c(OC)cc1O [Licochalcone A]"
measured_on = "Coxsackie virus B4"
result = "<1/100"


* * *

# Test system: Helicobacter pylori
# Assay: Helicobacter species Assay (agar plate, MIC)
# Assay type: cell-based
# Study Conditions: Helicobacter pylori; 20 strains of H. pylori; agar plate, 72 hours; read-out: MIC
Measured MIC accompanies every entry in the list below.
Endpoint Label: MIC (µg/mL)

[[record]]
given_smiles = "CCCCOc1ccccc1C(=O)/C=C/c1ccc(OC)cc1OC"
measured_on = "Helicobacter pylori"
units_text = "µg/mL"
qualifier_sign = "="
result = 128

[[record]]
given_smiles = "COc1cc(/C=C/C(=O)c2ccc(N(C)C)cc2)cc(OC)c1"
measured_on = "Helicobacter pylori"
units_text = "µg/mL"
qualifier_sign = ">"
result = 128

[[record]]
given_smiles = "COc1cc(/C=C/C(=O)c2ccc(C3CCCCC3)cc2)cc(OC)c1"
measured_on = "Helicobacter pylori"
units_text = "µg/mL"
qualifier_sign = "="
result = 64

[[record]]
given_smiles = "COc1cc(/C=C/C(=O)c2ccccc2F)cc(OC)c1"
measured_on = "Helicobacter pylori"
units_text = "µg/mL"
qualifier_sign = "="
result = 32


* * *

# Test system: TNF-α
# Assay: TNF-α production by human peripheral blood mononuclear cells, culture supernatant (ELISA)
# Assay type: cell-based
# Study Conditions: Experiment 2; SPAG; 12.5 μg/ml; Control 2.28
Endpoint Label: TNF-α production (OD values) (OD)

[[record]]
given_smiles = "COc1cc(/C=C/C(=O)c2ccc(C3CCCCC3)cc2)cc(OC)c1"
endpoint_label = "TNF-α production (OD values)"
result = 0.43

[[record]]
given_smiles = "COc1cc(/C=C/C(=O)c2ccccc2F)cc(OC)c1"
endpoint_label = "TNF-α production (OD values)"
result = 0.01

[[record]]
given_smiles = "COc1cc(/C=C/C(=O)c2cccc(F)c2)cc(OC)c1"
endpoint_label = "TNF-α production (OD values)"
result = 0.02

[[record]]
given_smiles = "CCCCOc1ccccc1C(=O)/C=C/c1ccc(OC)cc1OC"
endpoint_label = "TNF-α production (OD values)"
result = 0.02


* * *

Measured TNF-α production (OD values) accompanies every entry in the list below.
# System: TNF-α
# Assay: TNF-α production by human peripheral blood mononuclear cells, culture supernatant (ELISA)
# Assay type: cell-based
# Study Conditions: Experiment 2; LPS; 3.125 μg/ml; Control 2.06
Endpoint Label: TNF-α production (OD values) (OD)

[[record]]
given_smiles = "CCCCOc1ccccc1C(=O)/C=C/c1ccc(OC)cc1OC"
units_text = "OD"
result = 1.00

[[record]]
given_smiles = "COc1cc(/C=C/C(=O)c2ccc(C3CCCCC3)cc2)cc(OC)c1"
units_text = "OD"
result = 1.41

[[record]]
given_smiles = "COc1cc(/C=C/C(=O)c2cccc(F)c2)cc(OC)c1"
units_text = "OD"
result = 1.81

[[record]]
given_smiles = "COc1cc(/C=C/C(=O)c2ccccc2F)cc(OC)c1"
units_text = "OD"
result = 0.49

